System: M-07e cells
Assay: M-07e cellular assay (SCF-mediated cell proliferation)
Type: cell-based
Details: Homo sapiens, 72 hours, CellTiter Glo
pEC50: −log10 of the molar value.
Consider the following molecules; for each one, report its pEC50.

Tell us which pEC50 value is on record for Cc1ccc(-c2noc([C@H]3C[C@@H]3F)n2)cc1NC(=O)c1cnc(-c2ccc3[nH]c4c(c3c2)CCNC4)o1
6.00 to 7.00

Tell us which pEC50 value is on record for Cc1ncc(-c2noc(C3(F)CN(C(=O)C(C)(F)F)C3)n2)cc1NC(=O)c1cnn2ccc(N3CC4(C3)CC(O)(C(F)F)C4)cc12
< 6.00

Tell us which pEC50 value is on record for COC(=O)Nc1ccc(-c2ncc(C(=O)Nc3cc(-c4noc([C@H]5C[C@@H]5F)n4)ccc3C)o2)cc1
6.00 to 7.00
